# Kd per record follows
system.tested: T1, human GREM1 (hGREM1-His; SEQ ID NO: 595) (human, UniProt O60565 25-184)
T1 construct: also called biotin-hGREM1-His; recombinant human GREM1 protein
T1 sequence: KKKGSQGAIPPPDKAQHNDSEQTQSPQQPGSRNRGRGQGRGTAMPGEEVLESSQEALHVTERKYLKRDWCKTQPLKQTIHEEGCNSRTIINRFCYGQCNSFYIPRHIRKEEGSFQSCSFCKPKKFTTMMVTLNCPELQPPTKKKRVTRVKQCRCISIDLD
measurement.description: SPR, Biacore T200, 37 C, mAb captured, hGREM1-His injected;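 note: HBS-EP running buffer containing heparin, association and dissociation phases tracked, KD computed as koff over kon and half-life derived from koff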
Record the value in nM, omitting the unit from your answer.

**Query** Need Kd, item H4H2780N (antibody, human IgG4, V domains shown, H4H prefix = human IgG4 Fc) VH: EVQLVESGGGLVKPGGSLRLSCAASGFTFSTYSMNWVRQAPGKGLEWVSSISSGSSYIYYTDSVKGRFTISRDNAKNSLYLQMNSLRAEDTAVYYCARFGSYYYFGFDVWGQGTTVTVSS VL: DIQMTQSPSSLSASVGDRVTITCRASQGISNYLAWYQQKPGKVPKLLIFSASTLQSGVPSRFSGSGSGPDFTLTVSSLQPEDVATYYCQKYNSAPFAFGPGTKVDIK
**Result** 28
